Test system: HOP-92 NSCLC
assayInfo: NCI tumour cell line growth inhibition, 48 h; in the data active means GI50 below about 0.43 µM; inactive means the rest
API: response.call in active, inactive

// below: answered molecules
molecularString	label
N#Cc1c(-c2ccc(Cl)cc2)csc1NC(=O)Nc1ccc(Cl)c(C(F)(F)F)c1	active
C=CCn1c(SCC(=O)Nc2ccc(C(=O)/C=C/c3cc(OC)c(OC)c(OC)c3)cc2)nnc1-c1ccc(Cl)cc1	inactive

IN: Tell me the recorded outcome of this test for O=c1c2c([nH]c3ccccc13)CCCC2 .
OUT: inactive

IN: Next molecule up: O=C(Nc1cccc(-n2ccc3c(NC(=O)c4ccccc4)nccc32)c1)Nc1ccc(Cl)c(C(F)(F)F)c1
OUT: inactive
